target: Estrogen receptor (Homo sapiens); test: ATG_ERa_TRANS: Attagene TRANS-FACTORIAL HepG2 Assay for human Estrogen Receptor alpha (ERa) (AID 2282970); settings: HepG2 Attagene TRANS ERa GAL4 reporter, mRNA
Records with an inconclusive call do not appear. Calls of active or inactive are those of the source. Rule for the calls: active = hit-call score of the fitted dose curve at least 0.9, where 1 is the maximum; inconclusive = response in the unintended direction; inactive = score below 0.9.
Field 'call' accepts class 1 for active, class 0 for inactive

Worked cases, answers included:
# Compound, Measured on, Category
data = [
    ("CC(=O)OC1CCCCC1C(C)(C)C (centres undefined)", "Estrogen receptor (Homo sapiens)", "class 0"),
    ("CCC(=O)C1CC(C(C)C)CC=C1C (centres undefined)", "Estrogen receptor (Homo sapiens)", "class 0"),
    ("CCCCCCCCCCCCCCCCCCOS(=O)(=O)O", "Estrogen receptor (Homo sapiens)", "class 0"),
]

Q) How did this test come out for "CC(C)CO" ?
A) class 0

Q) // next record "O=C(Nc1ccccc1)c1cc(Cl)ccc1O"
A) class 0

Q) Field entry: CCCC(C)C(=O)OCC (centres undefined)
A) class 0

Q) Entry CC1=CC(C)C(C=O)CC1 (centres undefined) please
A) class 0

Q) How about this compound: "CCN1CN(CC)CN(CC)C1"
A) class 0

Q) What do you have for "COc1ccc(-c2coc3cc(O)cc(O)c3c2=O)cc1" ?
A) class 1

Q) And the next one, CC1=C(O)C(=O)C(C)O1 (centres undefined) ?
A) class 0

Q) Query "Oc1c(Cl)cc(Cl)c(Cl)c1Cl" next
A) class 0

Q) What about "CCCC=C(C=O)CC" ?
A) class 0

Q) Try this compound too: "C=C(C)C(=O)OCCOC(=O)C(=C)C"
A) class 0

Q) // next record "Oc1ccc(/C=C/c2cc(O)cc(O)c2)cc1"
A) class 1

Q) Ok, now "C=CC(=O)OCCCCCCOC(=O)C=C"
A) class 0

Q) Please answer likewise for "CN(C)Cc1cc(CN(C)C)c(O)c(CN(C)C)c1"
A) class 0

Q) Now try C=C(C)C1CC=C(C)CC1 (centres undefined) .
A) class 0

Q) And "CCCC/C=C/C=C\C=O" ?
A) class 0

Q) Quick one: "CCCCCCCCCCCCCC(=O)OC(C)C"
A) class 0

Q) Would you mind doing "Nc1ccc(O)c([N+](=O)[O-])c1" as well?
A) class 0

Q) Same question for "CCOC(=O)/C=C\C(=O)OCC" please.
A) class 0

Q) Likewise for "CCOC(=O)[C@H](O)[C@@H](O)C(=O)OCC" ?
A) class 0

Q) Next record, please: "O=C(OCc1ccccc1)c1ccc(O)cc1"
A) class 1

Q) Same question, "C=C[C@@]1(C)CC(=O)[C@]2(O)[C@@]3(C)[C@@H](O)CCC(C)(C)[C@@H]3[C@H](O)[C@H](OC(C)=O)[C@@]2(C)O1" this time
A) class 1

----------
target: Transcriptional activator Myb (Homo sapiens) (UniProt P10242); test: ATG_Myb_CIS: Attagene CIS-FACTORIAL HepG2 Assay for human Myeloblastosis (Myb) Proto-Oncogene Transcription Factor (AID 2282986); details: HepG2 Attagene CIS-FACTORIAL Myb reporter transcription; actives raise or lower the signal
Sequence (P10242 whole entry, looked up): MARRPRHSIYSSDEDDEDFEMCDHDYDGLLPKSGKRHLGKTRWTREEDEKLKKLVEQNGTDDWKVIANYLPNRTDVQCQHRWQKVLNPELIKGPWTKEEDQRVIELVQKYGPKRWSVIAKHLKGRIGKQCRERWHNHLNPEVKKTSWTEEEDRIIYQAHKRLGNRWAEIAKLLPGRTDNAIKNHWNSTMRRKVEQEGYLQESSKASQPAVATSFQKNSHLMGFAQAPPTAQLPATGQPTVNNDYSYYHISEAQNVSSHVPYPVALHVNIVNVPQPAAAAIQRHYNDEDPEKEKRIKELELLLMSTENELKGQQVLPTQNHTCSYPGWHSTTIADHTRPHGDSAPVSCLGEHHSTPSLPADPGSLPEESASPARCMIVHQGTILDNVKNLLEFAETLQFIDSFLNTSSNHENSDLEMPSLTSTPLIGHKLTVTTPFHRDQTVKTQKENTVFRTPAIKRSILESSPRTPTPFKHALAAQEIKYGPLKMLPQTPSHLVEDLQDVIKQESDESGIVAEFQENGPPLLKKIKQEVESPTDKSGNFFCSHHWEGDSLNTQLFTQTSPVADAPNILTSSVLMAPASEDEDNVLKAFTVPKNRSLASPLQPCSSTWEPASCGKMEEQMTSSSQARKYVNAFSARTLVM
The source made the active and inactive calls. Rule for the calls: active = hit-call score of the fitted dose curve at least 0.9, where 1 is the maximum; inactive = score below 0.9.
Result category, one only: yes for active, no for inactive

# Compound, Category
data = [
    ("Nc1cccc(N)n1", "no"),
]

Q) What outcome does the record of this test show for "CCOC(=O)C1=NOC(c2ccccc2)(c2ccccc2)C1" ?
A) no

Q) Subsequent entry: "CCOc1ccc(NC(N)=O)cc1"
A) no

Q) Please do the same for "CC1(C)C(=O)N(CO)C(=O)N1CO" as well.
A) no

Q) Repeat for the following compound: "COc1nccnc1CC(C)C"
A) no
